# Run Description: Oral bioavailability in Beagle dog at 1 mg/kg via gavage
# Assay type: ADME, organism-based, Canis lupus familiaris
# Settings: in vivo
Parameter Measured: bioavailability

Value lookup for bioavailability; key = Cc1cc(C)n(-c2cccc([C@H](CC(=O)O)CN3CC[C@@H](CCc4ccc5c(n4)NCCC5)C3)c2)n1 [GSK-3008348 FREE BASE] 27 to 34%

* * *

# Run Description: Volume of distribution at steady state in Beagle dog blood at 1 mg/kg, iv dosed via 60 mins infusion followed by 6 days washout and re-dosed via oral gavage at 1 mg/kg
# Format: ADME, organism-based, Canis lupus familiaris
# Settings: whole blood, read-out: Vdss
Parameter Measured: Vd

Quick one: Vd of Cc1cc(C)n(-c2cccc([C@H](CC(=O)O)CN3CC[C@@H](CCc4ccc5c(n4)NCCC5)C3)c2)n1 [GSK-3008348 FREE BASE] ? 2.6 to 4.7 L/kg
